Quick reference: EC50 of the listed items.
Target or test system: F508delCFTR (Homo sapiens, UniProt P13569, DEL508-508)
Construct: expressed in transfected cells; host or cells: CFBE41o- (human lung derived epithelial cell line), doxycycline-inducible expression
Sequence (P13569 with tags, fused parts or gaps DEL508-508): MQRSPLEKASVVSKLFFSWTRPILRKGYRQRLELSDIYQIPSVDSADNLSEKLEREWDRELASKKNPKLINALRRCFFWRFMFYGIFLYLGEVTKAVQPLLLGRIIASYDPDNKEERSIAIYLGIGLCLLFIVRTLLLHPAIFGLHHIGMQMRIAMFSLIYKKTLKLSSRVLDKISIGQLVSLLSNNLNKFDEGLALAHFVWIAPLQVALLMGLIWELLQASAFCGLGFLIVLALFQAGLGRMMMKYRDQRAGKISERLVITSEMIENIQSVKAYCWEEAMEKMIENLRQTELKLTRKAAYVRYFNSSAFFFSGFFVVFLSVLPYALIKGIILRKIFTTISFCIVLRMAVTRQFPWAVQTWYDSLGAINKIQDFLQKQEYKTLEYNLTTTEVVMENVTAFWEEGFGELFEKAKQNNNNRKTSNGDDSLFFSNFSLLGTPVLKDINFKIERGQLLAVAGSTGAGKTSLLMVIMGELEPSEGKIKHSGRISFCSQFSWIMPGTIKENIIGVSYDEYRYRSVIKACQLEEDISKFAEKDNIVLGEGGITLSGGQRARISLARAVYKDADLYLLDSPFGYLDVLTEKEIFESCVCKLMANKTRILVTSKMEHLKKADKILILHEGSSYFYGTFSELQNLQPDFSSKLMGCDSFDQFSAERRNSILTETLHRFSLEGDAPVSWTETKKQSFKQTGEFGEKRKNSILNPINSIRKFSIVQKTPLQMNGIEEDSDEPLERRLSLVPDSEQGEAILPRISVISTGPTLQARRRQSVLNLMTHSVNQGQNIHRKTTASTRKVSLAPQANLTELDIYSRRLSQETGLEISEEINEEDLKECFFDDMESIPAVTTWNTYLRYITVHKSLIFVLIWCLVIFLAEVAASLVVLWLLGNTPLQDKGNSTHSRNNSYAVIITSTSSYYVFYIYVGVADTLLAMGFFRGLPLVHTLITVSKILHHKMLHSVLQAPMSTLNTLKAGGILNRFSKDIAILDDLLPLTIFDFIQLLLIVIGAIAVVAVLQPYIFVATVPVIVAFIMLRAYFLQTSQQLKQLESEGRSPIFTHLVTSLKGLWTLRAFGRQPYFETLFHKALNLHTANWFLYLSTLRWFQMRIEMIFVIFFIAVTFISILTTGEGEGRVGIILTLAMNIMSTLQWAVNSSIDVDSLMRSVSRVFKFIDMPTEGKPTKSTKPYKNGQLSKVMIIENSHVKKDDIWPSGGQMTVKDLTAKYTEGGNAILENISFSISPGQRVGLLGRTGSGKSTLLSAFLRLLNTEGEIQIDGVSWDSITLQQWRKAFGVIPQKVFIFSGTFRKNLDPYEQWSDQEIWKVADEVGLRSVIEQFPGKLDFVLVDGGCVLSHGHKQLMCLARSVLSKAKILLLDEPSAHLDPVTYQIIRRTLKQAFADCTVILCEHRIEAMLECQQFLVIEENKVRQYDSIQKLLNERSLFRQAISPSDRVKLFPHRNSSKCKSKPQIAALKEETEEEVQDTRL
Assay comment: Cell Surface Expression-Horse Radish Peroxidase (CSE-HRP) assay
Format: cell-based
Condition context: CFBE41o-F508delCFTR-HRP cells; with co-corrector (2 μM of 3-[(2R,4R)-4-({[1-(2,2-difluoro-1,3-benzodioxol-5-yl)cyclopropyl]carbonyl}amino)-7-methoxy-3,4-dihydro-2H-chromen-2-yl]benzoic acid); read-out: EC50 (with co-corrector)

Query block: Recorded EC50 for COc1ncc(Br)cc1CO[C@H]1[C@H](C(C)(C)C)[C@@H](C(=O)O)N(C(=O)OC(C)C)[C@H]1c1ccccc1 , please?
Result block: 1 to 10 µM

---
Query block: Recorded EC50 for COc1nc2cc(C)ccc2cc1CO[C@H]1[C@H](C(C)(C)C)[C@@H](C(=O)O)N(C(=O)[C@@H]2CCCCO2)[C@H]1c1ccccc1C , please?
Result block: < 1 µM

Query block: Recorded EC50 for COc1ncc(Cl)cc1OCCO[C@H]1[C@H](C(C)(C)C)[C@@H](C(=O)O)N(C(=O)[C@@H]2CCCCO2)[C@H]1c1ccccc1C , please?
Result block: 1 to 10 µM

Query block: Recorded EC50 for COc1nc2cc(C)cc(C)c2cc1CO[C@H]1[C@H](C(C)(C)C)[C@@H](C(=O)O)N(C(=O)OC(C)C)[C@H]1c1cccnc1OC(C)C , please?
Result block: 1 to 10 µM

Query block: Recorded EC50 for COc1ccc(C(C)(C)C)cc1CO[C@H]1[C@H](C(C)(C)C)[C@@H](C(=O)O)N(C(=O)[C@@H]2CCCO2)[C@H]1c1ccccc1C1CC1 , please?
Result block: 1 to 10 µM

Query block: Recorded EC50 for COc1ncc(C2CCC2)cc1CO[C@H]1[C@H](C(C)(C)C)[C@@H](C(=O)NS(=O)(=O)c2cccc(N)n2)N(C(=O)[C@@H]2CCCCO2)[C@H]1c1ccccc1C1CC1 , please?
Result block: 1 to 10 µM

Query block: Recorded EC50 for COc1ccc(C(C)(C)C)cc1CO[C@H]1[C@H](C(C)(C)C)[C@@H](C(=O)O)N(C(=O)[C@@H]2CCCO2)[C@H]1c1ccccc1C , please?
Result block: 1 to 10 µM

Query block: Recorded EC50 for COc1ncc(C2CCC2)cc1CO[C@H]1[C@H](C(C)(C)C)[C@@H](C(=O)O)N(C(=O)[C@@H]2CCCCO2)[C@H]1c1ccccc1C(C)C , please?
Result block: < 1 µM

Query block: Recorded EC50 for COc1ncc(C(F)(F)F)cc1CO[C@H]1[C@H](C(C)(C)C)[C@@H](C(=O)O)N(C(=O)OC(C)C)[C@H]1c1cccc(Cl)c1 , please?
Result block: 1 to 10 µM

Query block: Recorded EC50 for COc1ncc(C(F)(F)F)cc1CO[C@H]1[C@H](C(C)(C)C)[C@@H](C(=O)O)N(C(=O)[C@@H]2CCCCO2)[C@H]1c1ccccc1-c1cnn(C)c1 , please?
Result block: 1 to 10 µM

Query block: Recorded EC50 for COc1ncc(-c2ccccc2)cc1CO[C@H]1[C@H](C(C)(C)C)[C@@H](C(=O)O)N(C(=O)C2CCCCC2)[C@H]1c1ccccc1F , please?
Result block: 1 to 10 µM

Query block: Recorded EC50 for CC(C)(C)[C@@H]1C(OCc2cc(Cl)ccc2Cl)[C@@H](c2ccccc2)N(C(=O)CC2CCCC2)[C@H]1C(=O)O (mixture of isomers) , please?
Result block: 1 to 10 µM

----------
Target or test system: F508delCFTR (Homo sapiens, UniProt P13569, DEL508-508)
Construct: expressed in transfected cells; host or cells: CFBE41o- (human lung derived epithelial cell line), doxycycline-inducible expression
Assay comment: Cell Surface Expression-Horse Radish Peroxidase (CSE-HRP) assay;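 for Maximum % activity (with co-corrector): % of on-plate positive control (2 µM of the co-corrector compound) after DMSO subtraction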
Format: cell-based
Condition context: CFBE41o-F508delCFTR-HRP cells; with co-corrector (2 μM); normalized to on-plate positive control; highest concentration 20 μM
Observed property: Maximum % activity (with co-corrector)

Worked cases, answers included:
Query block: Recorded Maximum % activity (with co-corrector) for COc1ncc(C2CCC2)cc1CO[C@H]1[C@H](C(C)(C)C)[C@@H](C(=O)O)N(C(=O)C2CCCCC2)[C@H]1c1ccccc1C(C)C [Example 295] , please?
Result block: +++ (≥350)

Query block: Recorded Maximum % activity (with co-corrector) for C=CCOC(=O)N1[C@H](C(=O)O)[C@@H](C(C)(C)C)[C@H](OCc2cc(C(F)(F)F)cnc2OC)[C@@H]1c1ccccc1 [Example 90] , please?
Result block: +++ (≥350)

Query block: Recorded Maximum % activity (with co-corrector) for CO[C@H]1CCC[C@H](C(=O)N2[C@H](c3ccccc3)[C@H](Oc3cc(C(F)(F)F)cc(C)n3)[C@@H](C(C)(C)C)[C@@H]2C(=O)O)C1 [Example 28] , please?
Result block: +++ (≥350)

Query block: Recorded Maximum % activity (with co-corrector) for COc1ncc(C2CCCC2)cc1CO[C@H]1[C@H](C(C)(C)C)[C@@H](C(=O)O)N(C(=O)OC(C)C)[C@H]1c1ccccc1 [Example 44] , please?
Result block: +++ (≥350)

Query block: Recorded Maximum % activity (with co-corrector) for COc1ncc(C(F)(F)F)cc1CO[C@H]1[C@H](C(C)(C)C)[C@@H](C(=O)O)N(C(=O)[C@@H]2CCCO2)[C@H]1c1ccccc1C [Example 129] , please?
Result block: +++ (≥350)

Query block: Recorded Maximum % activity (with co-corrector) for COc1cc(C(F)(F)F)ccc1CO[C@H]1[C@H](C(C)(C)C)[C@@H](C(=O)O)N(C(=O)[C@@H]2CCC[C@@H](OC)C2)[C@H]1c1ccccc1 [Example 33] , please?
Result block: +++ (≥350)

Query block: Recorded Maximum % activity (with co-corrector) for CCOc1cncc(-c2ccccc2[C@H]2[C@@H](OCc3cc(C(F)(F)F)cnc3OC)[C@H](C(C)(C)C)[C@@H](C(=O)O)N2C(=O)[C@@H]2CCCCO2)c1 [Example 209] , please?
Result block: +++ (≥350)

Query block: Recorded Maximum % activity (with co-corrector) for COc1ncc(C(F)(F)F)cc1CO[C@H]1[C@H](C(C)(C)C)[C@@H](C(=O)O)N(C(=O)C2CCCCC2)[C@H]1c1cccc2c1OC(C)(C)C2 [Example 257] , please?
Result block: ++ (≥150 and <350)

Query block: Recorded Maximum % activity (with co-corrector) for COc1ccc(Br)cc1CO[C@H]1[C@H](C(C)(C)C)[C@@H](C(=O)O)N(C(=O)[C@@H]2CCC[C@@H](OC)C2)[C@H]1c1ccccc1 [Example 37] , please?
Result block: +++ (≥350)

Query block: Recorded Maximum % activity (with co-corrector) for COc1ccc(OC(F)(F)F)cc1CO[C@H]1[C@H](C(C)(C)C)[C@@H](C(=O)O)N(C(=O)[C@@H]2CCCCO2)[C@H]1c1ccccc1C [Example 224] , please?
Result block: +++ (≥350)

Now for a further compound.
Query block: Recorded Maximum % activity (with co-corrector) for COc1ncc(C(F)(F)F)cc1CO[C@H]1[C@H](C(C)(C)C)[C@@H](C(=O)O)N(C(=O)[C@@H]2CCCCO2)[C@H]1c1ccccc1-c1cncnc1 [Example 197] , please?
Result block: ++ (≥150 and <350)

----------
Target or test system: F508delCFTR (Homo sapiens, UniProt P13569, DEL508-508)
Construct: expressed in transfected cells; host or cells: CFBE41o- (human lung derived epithelial cell line), doxycycline-inducible expression
Assay comment: Cell Surface Expression-Horse Radish Peroxidase (CSE-HRP) assay
Assay type: cell-based
Condition context: CFBE41o-F508delCFTR-HRP cells; test compound without co-corrector; 18-24 hours at 33° C.; read-out: EC50 (without co-corrector)
pEC50: −log10 of the molar value.
Observed property: pEC50

Worked cases, answers included:
Query block: Recorded pEC50 for COc1nc(C(C)(C)C)ccc1CO[C@H]1[C@H](C(C)(C)C)[C@@H](C(=O)O)N(C(=O)C2CCCCC2)[C@H]1c1cccnc1OC(C)C , please?
Result block: 5.00 to 6.00

Query block: Recorded pEC50 for COc1ncc(C2CCC2)cc1CO[C@H]1[C@H](C(C)(C)C)[C@@H](C(=O)O)N(C(=O)[C@@H]2CCCCO2)[C@H]1c1cccc(Cl)c1C , please?
Result block: 5.00 to 6.00

---
Query block: Recorded pEC50 for COc1ncc(C2CCCC2)cc1CO[C@H]1[C@H](C(C)(C)C)[C@@H](C(=O)O)N(C(=O)C2CCCCC2)[C@H]1c1ccccc1 , please?
Result block: > 6.00
